Value source: PubChem BioAssay (NCI)

Would you mind telling me the reported growth of each entry?
- System: OVCAR-5 ovarian
- method-description: NCI-60 one-dose screen, 48 h (100 = growth as untreated, 0 = no growth, -100 = all killed)
- experimental-conditions: 10 µM unless noted
This is part of a sample that, as a whole, favours compounds with a hit. Of some 83,000 tested, about 20% had one in any assay.
Give bare numbers, in %.

Example entries begin here.
CC1(C)N=C(N)N=C(N)N1c1ccc(CCC(=O)Nc2ccc(S(=O)(=O)F)cc2)c(Cl)c1 = 29
Cc1ccc(S(=O)(=O)F)cc1C(=O)O = 102
C/C(CC(C)(C)N1CC1)=N\NC(=O)Nc1cccc2ccccc12 = 100

Hey, can you go through the list below and give me growth for every item?
1. COC1=CC(=O)O[C@@H](/C=C/c2ccc3c(c2)OCO3)C1
2. C[C@]12CC[C@H]3[C@@H](CC4SC(N)=NC45C/C(=N/NC(N)=O)CC[C@]35C)[C@@H]1CCC2=O (stereo partly specified)
3. CCOP1(=O)CC(C)=C(Cl)C(P(=O)(OCC)OCC)C1 (stereo unspecified)

95.7
72.9
82.9
